B1: INTS3 (parent)
chain: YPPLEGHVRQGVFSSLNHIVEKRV

- Variants of: B1
- ASSAY_METHOD_TEXT: protein stability index of a GFP-peptide fusion (GPS, HEK-293T) (PSI 1-6); higher = more stable;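 note: lentivirally expressed fusions sorted by FACS into six bins by GFP to DsRed ratio, PSI derived from sequencing read proportions per bin multiplied by bin number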
- CONDITION_SET: c terminus: a fixed tail appended
READOUT_KIND: protein stability index

>>> obs_value("H18R")
3.42
>>> obs_value("G11N")
2.29
>>> obs_value("P3V")
2.65
>>> obs_value("V20T")
2.48
>>> obs_value("V12C")
2.21
>>> obs_value("R23A")
2.19
>>> obs_value("V24R")
2.9
>>> obs_value("V20K")
2.43
>>> obs_value("V24M")
2.06
